Reference source: patent US20070128217A1

Tested on: antibodies in sera from SARS patients (sera 1a, 1b, 2, 6, 37, 62, London, SARS-yellow, SARS-green)
Type: binding, human
Lab note: anything with Binding of serum SARS-yellow to linear peptides of protein X5 of SARS-CoV Urbani at or over 0.4 counts as 1; the rest go in 0.

CLKILVRYNTRGNTY 0

Prompt line: // inclusive: Binding of serum SARS-yellow to linear peptides of protein X5 of SARS-CoV Urbani at least 0.4? input: VQTCTPNVTINCQDP
Response line: 0

Prompt line: Has AGGALIARCWYLHEG a recorded Binding of serum SARS-yellow to linear peptides of protein X5 of SARS-CoV Urbani greater than or equal to 0.4?
Response line: 1

Prompt line: Does the sequence QTAAFRDVLVVLNKR have recorded Binding of serum SARS-yellow to linear peptides of protein X5 of SARS-CoV Urbani that is 0.4 or more?
Response line: 1

Prompt line: Entry PAGGALIARCWYLHE : is its Binding of serum SARS-yellow to linear peptides of protein X5 of SARS-CoV Urbani no less than 0.4?
Response line: 0

Prompt line: Decide: is the reported value of Binding of serum SARS-yellow to linear peptides of protein X5 of SARS-CoV Urbani for AWLCALGKVLPFHRW equal to or greater than 0.4?
Response line: 0

Prompt line: Does the reported Binding of serum SARS-yellow to linear peptides of protein X5 of SARS-CoV Urbani for AAFRDVLVVLNKRTN fall at or above the 0.4 mark?
Response line: 1

----------
Tested on: antibodies in sera from SARS patients (sera 1a, 1b, 2, 6, 37, 62, London, SARS-yellow, SARS-green)
Assay type: binding, human
For each entry below, report its Binding of serum SARS-yellow to linear peptides of protein M of SARS-CoV Urbani value.
One number for each entry.

MWSFNPETNILLNVP 0.1
FRLFARTRSMWSFNP 0.2
DSGFAAYNRYRIGNY 0.1
WNLVIGFLFLAWIML 0.2
AYSNRNRFLYIIKLV 0.2

Please state Binding of serum SARS-yellow to linear peptides of protein M of SARS-CoV Urbani for every sequence in the list that follows.
1. SELVIGAVIIRGHLR
2. PKEITVATSRTLSYY
3. VATSRTLSYYKLGAS
4. PLMESELVIGAVIIR

Response line:
0.3
0.1
0.3
0.2

----------
Tested on: control sera (pooled serum of ten healthy LUMC hospital workers; commercial negative donor pooled serum from the Dutch bloodbank)
Format: binding, human
Design: unit not given here
Hi, to clarify the labels: Criterion met covers Binding of Control Serum Blood-Bank to Looped peptides from 0.6 upward, Criterion not met covers anything below 0.6.

Below, 5 sequences whose answers are already recorded.
RNGARPKQRRPQGLP Criterion not met
GVAFLAVFQSATKII Criterion met
RNPNNNAATVLQLPQ Criterion met
TQAFGRRGPEQTQGN Criterion met
SRGNSRNSTPGSSRG Criterion not met

Prompt line: Textbook exercise: given the entry QFMMSRRRLLACLCK , state whether its Binding of Control Serum Blood-Bank to Looped peptides is greater than or equal to 0.6.
Response line: Criterion not met

Prompt line: Could you tell me if the measured Binding of Control Serum Blood-Bank to Looped peptides of YFTEVYYQLESTQIT reaches 0.6 or more?
Response line: Criterion not met

Prompt line: Could you tell me if the measured Binding of Control Serum Blood-Bank to Looped peptides of LNQLESKVSGKGQQQ reaches 0.6 or more?
Response line: Criterion met

Prompt line: Does Binding of Control Serum Blood-Bank to Looped peptides meet or surpass 0.6 for TRRVRGGDGKMKELS ?
Response line: Criterion not met

Prompt line: # bool: Binding of Control Serum Blood-Bank to Looped peptides of GWLVIGVAFLAVFQS >= 0.6
Response line: Criterion met

Prompt line: # check: Binding of Control Serum Blood-Bank to Looped peptides of ALYKGFQFICNLLLL is greater than or equal to 0.6
Response line: Criterion not met
